test: cn = amount concentration of the nth substance listed, in mol/dm3; settings: 293.15 K; 101 kPa; Liquid; c1 = 0.2
Numbers after ± are expanded uncertainties.
measurementLabel: mass density

compound	measValue
OC[C@@H](O)[C@@H](O)CO [meso-1,2,3,4-butanetetrol] + O	1005.36 ± 1.4 kg/m3
OC[C@@H](O)[C@H](O)[C@@H](O)CO [xylitol] + O	1008.5 ± 1.4 kg/m3
OC[C@@H](O)[C@@H](O[C@H]1O[C@H](CO)[C@@H](O)[C@H](O)[C@H]1O)[C@H](O)[C@@H](O)CO [4-O-α-D-glucopyranosyl-D-glucitol] + O	1018.37 ± 1.6 kg/m3
OC[C@@H](O)[C@@H](O)[C@H](O)[C@H](O)CO [mannitol] + O	1010.89 ± 1.5 kg/m3
OC[C@@H](O)[C@@H](O)[C@H](O)[C@@H](O)CO [D-sorbitol] + O	1011.23 ± 1.5 kg/m3

* * *

experiment: cn = amount concentration of the nth substance listed, in mol/dm3; settings: 303.15 K; 101 kPa; Liquid; c1 = 0.2
viscosity listing for selected compounds.

compound	viscosity / mPa·s
OC[C@@H](O)[C@@H](O)[C@H](O)[C@H](O)CO [mannitol] + O	0.9398
OC[C@@H](O)[C@@H](O)[C@H](O)[C@@H](O)CO [D-sorbitol] + O	0.8842
OC[C@@H](O)[C@@H](O[C@H]1O[C@H](CO)[C@@H](O)[C@H](O)[C@H]1O)[C@H](O)[C@@H](O)CO [4-O-α-D-glucopyranosyl-D-glucitol] + O	0.9747
OC[C@@H](O)[C@H](O)[C@@H](O)CO [xylitol] + O	0.8774
OC[C@@H](O)[C@@H](O)CO [meso-1,2,3,4-butanetetrol] + O	0.8706

* * *

mass density listing for selected molecules.
assay: cn = amount concentration of the nth substance listed, in mol/dm3; details: 303.15 K; 101 kPa; Liquid; c1 = 0.1

molecule	mass density [kg/m3]
OC[C@@H](O)[C@@H](O)CO [meso-1,2,3,4-butanetetrol] + O	999.34
OC[C@@H](O)[C@H](O)[C@@H](O)CO [xylitol] + O	1000.96
OC[C@@H](O)[C@@H](O)[C@H](O)[C@@H](O)CO [D-sorbitol] + O	1002.12
OC[C@@H](O)[C@@H](O[C@H]1O[C@H](CO)[C@@H](O)[C@H](O)[C@H]1O)[C@H](O)[C@@H](O)CO [4-O-α-D-glucopyranosyl-D-glucitol] + O	1007.32
OC[C@@H](O)[C@@H](O)[C@H](O)[C@H](O)CO [mannitol] + O	1002.13

* * *

assay: cn = amount concentration of the nth substance listed, in mol/dm3; conditions: 313.15 K; 101 kPa; Liquid; c1 = 0.6
measurementLabel: mass density (kg/m3)

compound	measurementLabel	resultUnits	measValue
OC[C@@H](O)[C@@H](O)CO [meso-1,2,3,4-butanetetrol] + O	mass density	kg/m3	1012.43
OC[C@@H](O)[C@@H](O[C@H]1O[C@H](CO)[C@@H](O)[C@H](O)[C@H]1O)[C@H](O)[C@@H](O)CO [4-O-α-D-glucopyranosyl-D-glucitol] + O	mass density	kg/m3	1048.38
OC[C@@H](O)[C@@H](O)[C@H](O)[C@@H](O)CO [D-sorbitol] + O	mass density	kg/m3	1029.9
OC[C@@H](O)[C@@H](O)[C@H](O)[C@H](O)CO [mannitol] + O	mass density	kg/m3	1029.38
OC[C@@H](O)[C@H](O)[C@@H](O)CO [xylitol] + O	mass density	kg/m3	1021.78

* * *

experiment: cn = amount concentration of the nth substance listed, in mol/dm3; conditions: 313.15 K; 101 kPa; Liquid; c1 = 0.5

compound	mass density, kg/m3
OC[C@@H](O)[C@@H](O)[C@H](O)[C@H](O)CO [mannitol] + O	1023.16
OC[C@@H](O)[C@@H](O[C@H]1O[C@H](CO)[C@@H](O)[C@H](O)[C@H]1O)[C@H](O)[C@@H](O)CO [4-O-α-D-glucopyranosyl-D-glucitol] + O	1039.46
OC[C@@H](O)[C@H](O)[C@@H](O)CO [xylitol] + O	1016.87
OC[C@@H](O)[C@@H](O)CO [meso-1,2,3,4-butanetetrol] + O	1009.63
OC[C@@H](O)[C@@H](O)[C@H](O)[C@@H](O)CO [D-sorbitol] + O	1023.01

* * *

viscosity listing for selected compounds.
assay: cn = amount concentration of the nth substance listed, in mol/dm3; settings: 293.15 K; 101 kPa; Liquid; c1 = 1

compound	resultUnits	viscosity
OC[C@@H](O)[C@@H](O)CO [meso-1,2,3,4-butanetetrol] + O	mPa·s	1.338
OC[C@@H](O)[C@H](O)[C@@H](O)CO [xylitol] + O	mPa·s	1.473
OC[C@@H](O)[C@@H](O[C@H]1O[C@H](CO)[C@@H](O)[C@H](O)[C@H]1O)[C@H](O)[C@@H](O)CO [4-O-α-D-glucopyranosyl-D-glucitol] + O	mPa·s	2.68
OC[C@@H](O)[C@@H](O)[C@H](O)[C@@H](O)CO [D-sorbitol] + O	mPa·s	1.608

* * *

assay: cn = amount concentration of the nth substance listed, in mol/dm3; conditions: 323.15 K; 101 kPa; Liquid; c1 = 0.6
mass density listing for selected compounds.

compound	mass density [kg/m3]
OC[C@@H](O)[C@@H](O)CO [meso-1,2,3,4-butanetetrol] + O	1008.41
OC[C@@H](O)[C@@H](O)[C@H](O)[C@H](O)CO [mannitol] + O	1024.45
OC[C@@H](O)[C@@H](O[C@H]1O[C@H](CO)[C@@H](O)[C@H](O)[C@H]1O)[C@H](O)[C@@H](O)CO [4-O-α-D-glucopyranosyl-D-glucitol] + O	1044.28
OC[C@@H](O)[C@H](O)[C@@H](O)CO [xylitol] + O	1017.34
OC[C@@H](O)[C@@H](O)[C@H](O)[C@@H](O)CO [D-sorbitol] + O	1025.33

* * *

assay: cn = amount concentration of the nth substance listed, in mol/dm3; settings: 323.15 K; 101 kPa; Liquid; c1 = 1

compound	mass density / kg/m3
OC[C@@H](O)[C@@H](O[C@H]1O[C@H](CO)[C@@H](O)[C@H](O)[C@H]1O)[C@H](O)[C@@H](O)CO [4-O-α-D-glucopyranosyl-D-glucitol] + O	1079.96
OC[C@@H](O)[C@H](O)[C@@H](O)CO [xylitol] + O	1037
OC[C@@H](O)[C@@H](O)CO [meso-1,2,3,4-butanetetrol] + O	1022.64
OC[C@@H](O)[C@@H](O)[C@H](O)[C@@H](O)CO [D-sorbitol] + O	1049.92

* * *

test: cn = amount concentration of the nth substance listed, in mol/dm3; conditions: 313.15 K; 101 kPa; Liquid; c1 = 0.9

molecule	mass density [kg/m3]
OC[C@@H](O)[C@@H](O)[C@H](O)[C@@H](O)CO [D-sorbitol] + O	1048.48
OC[C@@H](O)[C@@H](O[C@H]1O[C@H](CO)[C@@H](O)[C@H](O)[C@H]1O)[C@H](O)[C@@H](O)CO [4-O-α-D-glucopyranosyl-D-glucitol] + O	1075.14
OC[C@@H](O)[C@@H](O)CO [meso-1,2,3,4-butanetetrol] + O	1023.23
OC[C@@H](O)[C@H](O)[C@@H](O)CO [xylitol] + O	1036.54

* * *

assay: cn = amount concentration of the nth substance listed, in mol/dm3; conditions: 293.15 K; 101 kPa; Liquid; c1 = 0.8
measurementLabel: viscosity (mPa·s)

molecule	measValue
OC[C@@H](O)[C@@H](O[C@H]1O[C@H](CO)[C@@H](O)[C@H](O)[C@H]1O)[C@H](O)[C@@H](O)CO [4-O-α-D-glucopyranosyl-D-glucitol] + O	2.304
OC[C@@H](O)[C@@H](O)[C@H](O)[C@H](O)CO [mannitol] + O	1.553
OC[C@@H](O)[C@H](O)[C@@H](O)CO [xylitol] + O	1.362
OC[C@@H](O)[C@@H](O)[C@H](O)[C@@H](O)CO [D-sorbitol] + O	1.466
OC[C@@H](O)[C@@H](O)CO [meso-1,2,3,4-butanetetrol] + O	1.257

* * *

experiment: cn = amount concentration of the nth substance listed, in mol/dm3; details: 303.15 K; 101 kPa; Liquid; c1 = 0.8
mass density listing for selected compounds.

compound	mass density, kg/m3
OC[C@@H](O)[C@H](O)[C@@H](O)CO [xylitol] + O	1035.17
OC[C@@H](O)[C@@H](O)[C@H](O)[C@@H](O)CO [D-sorbitol] + O	1046.04
OC[C@@H](O)[C@@H](O)CO [meso-1,2,3,4-butanetetrol] + O	1024.2
OC[C@@H](O)[C@@H](O[C@H]1O[C@H](CO)[C@@H](O)[C@H](O)[C@H]1O)[C@H](O)[C@@H](O)CO [4-O-α-D-glucopyranosyl-D-glucitol] + O	1069.76
OC[C@@H](O)[C@@H](O)[C@H](O)[C@H](O)CO [mannitol] + O	1044.2
